Where do these numbers come from? They come from patent US12691070B2.

# ASSAY_COMMENT: LNP size and polydispersity index (PDI) by dynamic light scattering
# Assay type: physicochemical
# CONDITIONS_USED: LNP with cirRNA (SEQ ID NO: 1); in nm (unit assumed)
For each record, write down the corresponding Size.
Lab note: write the figure by itself, no unit.

Supply measured Size of CCCCCCCCC(CCCCCC)C(=O)OCCCCCCCCN(CCCCCCCCOC(=O)C(CCCCCC)CCCCCCCC)CCCOC(=O)NCCCN(CC)CC (centres unmarked) in your reply.
102

# return recorded Size for input CCCCCCCOC(=O)CCCCCCCCCN(CCCCCCCCCC(=O)OCCCCCCC)CCOC(=O)NCCCN(CC)CC
134.6

Return the recorded Size value; entry: CCCCC/C=C\C/C=C\CCCCCCCCN(CCCCCCCC(=O)OC(CCCCCCCC)CCCCCCCC)CCOC(=O)NCCN1CCOCC1
89.71

For CCCCC/C=C\C/C=C\CCCCCCCCN(CCCCCC(=O)OCC(CCCCCCCC)CCCCCCCCCC)CCOC(=O)NCCN1CCOCC1 (centres unmarked) , write its Size.
99.18

Consider the molecule CCCCCCCCCC(=O)OCCCCCCCN(CCCCCCCCOC(=O)C(CCCCCC)CCCCCCCC)CCOC(=O)NCCCN(CC)CC (centres unmarked) and give its recorded Size.
97.91

----------
I'd be grateful if you could share measured Size for these entries.
# ASSAY_COMMENT: LNP size and polydispersity index (PDI) by dynamic light scattering
# Type: physicochemical
# CONDITIONS_USED: LNP with cirRNA (SEQ ID NO: 1); in nm (unit assumed)
Field format: numeric only.

State its Size for this compound: CCCCCCCCCCCOC(=O)CCCCCN(CCCCCCCCOC(=O)C(CCCCCC)CCCCCCCC)CCOC(=O)NCCN1CCCCC1 (stereo not drawn)
79.97

Assign Size to the following record: CCCCCCCCC(CCCCCCCC)OC(=O)CCCCCCCN(CCCCCCCCOC(=O)C(CCCCCC)CCCCCCCC)CCCOC(=O)NCCN(C)C (stereo not drawn)
98.08

Answer with reported Size of CCCCCCCCC(CCCCCC)C(=O)OCCCCCCCCN(CCCCCCCCOC(=O)C(CCCCCC)CCCCCCCC)CCOC(=O)NCc1ccc(NC(=O)OC(C)(C)C)cc1 (stereo not drawn)
80.1
